targetUnderTest: pooled human IgG (human IgG1, 2, 3 and 4)
Sorting guide: entries reporting Enzyme Activity Endpoint Assay (purified): Fab′2 beneath 600 ng/µL go in the met pile, the rest go in the not met pile.

Here's what some known entries look like.
1) PRT-619 (protein) MQITTVWTKGVTPLTPEQFRYNNEDVIHAPYLAHQGWYDITKAFDGKDNLLCGAATAGNMLHWWFDQNKTEIEAYLSKHPEKQKIIFNNQELFDLKAAIDTKDSQTNSQLFNYFRDKAFPNLSARQLGVMPDLVLDMFINGYYLNVFKTQSTDVNRPYQDKDKRGGIFDAVFTRGDQTTLLTARHDLKNGGLEDISTIIKQELKNGRALALSHTYANVSISHVINLWGADFNAEGNLSAIYVTDSDANASIGMKKYFVGINAHGHVAISAKKIEGENIGAQVLGLFTLSSGKDIWQKLSLEHHHHHH: met
2) PRT-384 (protein) MVTSVWTKGVTPPTNFTYGEDVLHAPYVANQGWYDITKTFNGKDDLLCGAATAGNMLHWWFDQNKEQIENYLKKHPEKQKINFNGEQMFDVKEAIDTKDSQLDSKLFEYFKEKAFPNLSTKHLGVFPDHVIDMFINGYRLSLTNHGPTPVKRGSKDPRGGIFDAVFTRGDQSKLLTNRHDFKEKTLKEISDLIKQELTEGKALGISHTYANVRINHVINLWGADFDAEGNLEAIYVTDSDSNASIGMKKYFVGVNSNGKVAISAKEIEEDNIGAQVLGLFTLSTGQDIWNQTN: met
3) PRT-549 (protein) MANQEIRYSEDTPSHITSVWTKGVTPPTQFIQNEDVLHAPYIANQGWYDITKTFNGKDDLLCGAATAGNMLHWWFDQNKEQIEAYLKKYPEKQKINFNGEQMFDVKEAIDTKDSQTDSALFNYFKDKAFPYLSTKHLGVFPDHVIDMFINGYRLSLTNHGPTPVKNQTKDPRGGIFDAVFTRGDQSKLLTARHDFKEKTLKEISQLIKQELTEGKALGLSHTYANVRINHVINLWGADFNAEGNLEAIYVTDSDSNASIGMKKYYVGVNAAGKVAISAKEIEGDNIGAQVLGLFTLSTGQDIWQQTNLEHHHHHH: not met
4) PRT-635 (protein) MQITSVWTKGVTPLTPDQFTNQGEDVIHAPYTPNQGWYDITKAFDGKDNLLCGAATAGNMLHWWFDQNKTEIEAYLSKHPEKQKIIFNNQELFDLKAAIDTKDSQTNSQLFNYFRDKAFPNLSARQLGVMPDLVLDMFINGYYLNVFKTQSTDVNRPYQDKDKRGGIFDAVFTRGDQTTLLTARHDLKNKGLNDISTIIKQELTEGKALALSHTYANVSISHVINLWGADFNAEGNLEAIYVTDSDANASIGMKKYFVGINAHGHVAISAKKIEGENIGAQVLGLFTLSSGKDIWQKLSLEHHHHHH: met
5) PRT-643 (protein) MQITSVWTKGVTPLTPEQFRYNNEDVIHAPYLAHQGWYDITKAFDGKDNLLCGAATAGNMLHWWFDQNKTEIEAYLSKHPEKQKIIFNNQELFDLKAAIDTKDSQTNSQLFNYFRDKAFPNLSARQLGVMPDLVLDMFINGYYLNVFKTQSTDVNRPYQDKDKRGGIFDAVFTRGDQTTLLTARHDLKNKGLNDISTIIKQELTEGRALALSHTYANVSISHVINLWGADFNAEGNLEAIYVTDSDANASIGMKKYKVGYNKDGRVAISAYKIEGENIGAQVLGLFTLSSGKDIWQKLSLEHHHHHH: not met

Does this protein meet the criterion Enzyme Activity Endpoint Assay (purified): Fab′2 < 600 ng/µL? PRT-437 (protein) MSQTEDSESLQRLRDIEDFQAEKKKQNVVYTKWLDGVDVKDHDFRKIVDGNEAYYATPLLNGRGFYDINKDFNRDSDKCAAAVAANMFHYWLDRNRDNVDRFLRQNPEKHGIIELPDGQLKLSDFLNTYESDDGYRDKSKLFDFISNNFNGPVWTDKLLDNYINGYAYNYKYGRTIEDPTKNTSKINFFKEVFNEKILTNNHSIRNQNEFSVLLSEALYTGKAIGLSYGPAGLRHSLGHIISVWGADLDADGNVVAIYVTDSDDKKLTIGDERVGLKRYKISTDDEGRLRLTAYEETHNTGGQIRGLWTLDTGKQAWADYFDKTEQTGTDQAEQ
met

Does this protein meet the criterion Enzyme Activity Endpoint Assay (purified): Fab′2 < 600 ng/µL? PRT-696 (protein) MTITSVWTKGVTPPTPEDFRYNNEDVLHAPYVPNQGWYDITKTFDGGDNLLCGAATAGNMLHWWFDQNKEEIERYLKKYPEKQKIIFNNQELFDVRAAINSKDSQTNSKLFNYFRDKAFPNLSARQLGVMPDLVLDMFINGYYLNLGKTQSTDVNRPYQDPDKRGGIFDDVFKEGDQTTLLTARHDLKNGGLNEISDLIKQELQSGKALALSHTYANVRINHVINLWGADFDAEGNLIAIYVTDSDANQSIGMKKYKVGVNANGKVAISAKKIEGDNIGAQVLGLFTLSTGQEIWQKLSLEHHHHHH
met
